TARGET: C-C chemokine receptor type 2 (Homo sapiens, UniProt P41597)
Sequence (P41597 whole entry): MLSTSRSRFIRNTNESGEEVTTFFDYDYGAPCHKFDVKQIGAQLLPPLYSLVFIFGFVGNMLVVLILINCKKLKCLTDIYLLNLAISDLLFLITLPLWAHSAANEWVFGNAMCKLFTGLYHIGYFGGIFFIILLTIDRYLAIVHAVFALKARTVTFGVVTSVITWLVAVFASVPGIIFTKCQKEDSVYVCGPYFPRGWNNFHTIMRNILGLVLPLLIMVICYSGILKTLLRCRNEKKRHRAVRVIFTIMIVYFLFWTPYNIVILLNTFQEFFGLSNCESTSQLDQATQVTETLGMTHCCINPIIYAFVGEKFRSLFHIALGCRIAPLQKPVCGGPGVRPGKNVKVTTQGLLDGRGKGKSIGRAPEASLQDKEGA
EXPERIMENTAL_PROTOCOL: Binding Assay: MCP-1 Receptor Binding Assay in THP-1 Cells Human monocytic cell line THP-1 cells were obtained from American Type Culture Collection (Manassas, Va., USA). The THP-1 cells were grown in RPMI-1640 (RPMI: Roswell Park Memorial Institute Medium-cell culture growth media) supplemented with 10% fetal bovine serum in a humidified 5% CO2 atmosphere at 37 C. The cell density was maintained between 0.5x10^6 cells/mL.THP-1 (cells were incubated with 0.5 nM 125I labeled MCP-1 (Perkin-Elmer Life Sciences, Inc. Boston, Mass.) in the presence of varying concentrations of either unlabeled MCP-1 (R & D Systems, Minneapolis, Minn.) or test compound for 2 hours at 30 C. in a 96 well plate. Cells were then harvested onto a filter plate, dried, and 20 uL of Microscint 20 was added to each well. Plates were counted in a TopCount NXT, Microplate Scintillation & Luminescence Counter (Perkin-Elmer Life Sciences, Inc. Boston, Mass.).
OBSERVATION_TYPE: IC50
Answer format: value, then unit.

// recorded IC50 for CC1(C)Cc2cc(/C=C/C(=O)N3CCC(C(NC4CCC(c5c[nH]c6ccccc56)CC4)C(N)=O)CC3)ccc2O1 (stereo unspecified) : 1100 nM
